molecular target: Thymidylate synthase (Homo sapiens); assay: Inhibitory activity against human thymidylate synthase with variable concentration of N5, 10-CH2-H4PteGlu and fixed dUMP (100 uM)
Sequence (P04818 whole entry): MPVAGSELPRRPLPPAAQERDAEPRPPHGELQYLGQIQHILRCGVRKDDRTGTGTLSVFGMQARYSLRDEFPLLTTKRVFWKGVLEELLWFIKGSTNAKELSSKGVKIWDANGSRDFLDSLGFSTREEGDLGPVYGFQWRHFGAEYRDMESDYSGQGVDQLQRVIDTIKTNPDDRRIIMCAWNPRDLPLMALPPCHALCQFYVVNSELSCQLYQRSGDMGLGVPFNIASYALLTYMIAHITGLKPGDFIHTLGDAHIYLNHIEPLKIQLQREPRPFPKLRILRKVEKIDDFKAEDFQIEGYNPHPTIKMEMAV
Reported values of pKi for individual entries
In plain terms, pKi is the concentration in mol/L turned into minus its base-10 logarithm.

# example entries with known answers
INSERT INTO assay_data (compound, experimental_target, measured_parameter, test_value) VALUES
  ('Nc1nc2c(c(=O)[nH]1)N(Cc1cn([C@H]3C[C@H](O)[C@@H](CO)O3)c(=O)[nH]c1=O)C(CNc1ccc(C(=O)NC(CCC(=O)O)C(=O)O)cc1)CC2 (some centres undefined)', 'Thymidylate synthase (Homo sapiens)', 'pKi', 3.62),
  ('COP(=O)(O)OC[C@H]1O[C@@H](n2cc(CN3c4c(nc(N)[nH]c4=O)CCC3CNc3ccc(C(=O)NC(CCC(=O)O)C(=O)O)cc3)c(=O)[nH]c2=O)C[C@@H]1O (some centres undefined)', 'Thymidylate synthase (Homo sapiens)', 'pKi', 3.15),
  ('Nc1nc2c(c(=O)[nH]1)N(Cc1cn([C@H]3C[C@H](O)[C@@H](COP(O)O)O3)c(=O)[nH]c1=O)C(CNc1ccc(C(=O)NC(CCC(=O)O)C(=O)O)cc1)CC2 (some centres undefined)', 'Thymidylate synthase (Homo sapiens)', 'pKi', 6.60);

In the following, a different compound is considered.
Ask: Write down the reported pKi of CCOC(=O)CCC(NC(=O)c1ccc(N(CC2CCc3nc(N)[nH]c(=O)c3N2)N=O)cc1)C(=O)OCC (centres undefined) , test system: Thymidylate synthase (Homo sapiens).
Reply: 3.82
